B1: r11_951_TrROS_Hall (parent)
chain: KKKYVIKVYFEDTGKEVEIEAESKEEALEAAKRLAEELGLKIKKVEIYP

variants of: B1; assay: folding stability dG (cDNA display proteolysis); higher = more stable; settings: PBS, room temperature
folding stability dG values, listed per item

RESIDUE_STRING | folding stability dG
KKKWVIKVYFEDTGKEVEIEAESKEEALEAAKRLAEELGLKIKKVEIYP [Y4W] | 4.31 kcal/mol
KKKYVIKVYFEDTGKEVEIEAESKEEALEAAKPLAEELGLKIKKVEIYP [R33P] | 2.02 kcal/mol
KKKYVIKVYFEDTGKEVEIEAESKEEALEAAKRLAEELGLHIKKVEIYP [K41H] | 4.22 kcal/mol
KKKYVIKVYFEDTGKEVEIEAESKEEALEAAKRLAEELGLKIKKVEIDP [Y48D] | 4.13 kcal/mol
KKKYVIKVYFEDTGKEVEIEAESKEEALEAAKRLAEELGLKIKKVAIYP [E46A] | 4.32 kcal/mol
KKGYVIKVYFEDTGKEVEIEAESKEEALEAAKRLAEELGLKIKKVEIYP [K3G] | 4.03 kcal/mol
KKKYVIKVYFEDTGKEVEIEAESKEEALEAAKRLAEELGLAIKKVEIYP [K41A] | 4.33 kcal/mol
KKKYVIKVYFEDTGKEVEIEAESKEEALEAAKRLAEEMGLKIKKVEIYP [L38M] | 4.56 kcal/mol
KKLYVIKVYFEDTGKEVEIEAESKEEALEAAKRLAEELGLKIKKVEIYP [K3L] | 4.63 kcal/mol
KKKYVIKVYFEDTGKEPEIEAESKEEALEAAKRLAEELGLKIKKVEIYP [V17P] | 3.58 kcal/mol
KKKYVIKVYFEDTGKEVEIEAESKEEALEAAKVLAEELGLKIKKVEIYP [R33V] | 4.22 kcal/mol
KKKYVIKVYFEDYGKEVEIEAESKEEALEAAKRLAEELGLKIKKVEIYP [T13Y] | 4.47 kcal/mol
KKKYVIKVYFRDTGKEVEIEAESKEEALEAAKRLAEELGLKIKKVEIYP [E11R] | 4.82 kcal/mol
KKKYVIKVYFEDTGKEVEIEAESKEEALDAAKRLAEELGLKIKKVEIYP [E29D] | 4.44 kcal/mol
KKKYVIKVYFTDTGKEVEIEAESKEEALEAAKRLAEELGLKIKKVEIYP [E11T] | 4.48 kcal/mol
KKKYVIKVYFEDTGKEVEIEAESKEEALEAAKRYAEELGLKIKKVEIYP [L34Y] | 4.45 kcal/mol
KKKYVIKVYFEDTGKEVEIEAESKEEALEAAKRLREELGLKIKKVEIYP [A35R] | 3.55 kcal/mol
KLKYVIKVYFEDTGKEVEIEAESKEEALEAAKRLAEELGLKIKKVEIYP [K2L] | 4.61 kcal/mol
KKKYVIKVYFEDTGKEVEIEAESKEEALEAAKRLAEELGLKIKKVEIFP [Y48F] | 4.64 kcal/mol
KKKYVIKVYFEDTGKEVEIEAESKEEALEAAKRLAEELNLKIKKVEIYP [G39N] | 4.39 kcal/mol
KKKYVIKQYFEDTGKEVEIEAESKEEALEAAKRLAEELGLKIKKVEIYP [V8Q] | 1.52 kcal/mol
KKKYVIKVYFEDTGKEVEIEAESKEEALEAAKRLAEELCLKIKKVEIYP [G39C] | 4.25 kcal/mol
KKKYVIKVYFEDTGKECEIEAESKEEALEAAKRLAEELGLKIKKVEIYP [V17C] | 4.25 kcal/mol
KKKYVIKVYFEDTGKEVEIEAESKEEALEAAKRGAEELGLKIKKVEIYP [L34G] | 3.15 kcal/mol
KKKYVFKVYFEDTGKEVEIEAESKEEALEAAKRLAEELGLKIKKVEIYP [I6F] | 4.55 kcal/mol
KKKYVIKVYFEDTGKEVEIEAESKEEALEAAKRLAEELGLKIKKGEIYP [V45G] | 2.79 kcal/mol
KKKYVIKVYFEDTGKEVEIEAESKEEALEAAKRLAEELGSKIKKVEIYP [L40S] | 3.9 kcal/mol
KKKYVIKVYFEDTGKEVEIEAESKEEALEATKRLAEELGLKIKKVEIYP [A31T] | 4.01 kcal/mol
KKKYVIKVYSEDTGKEVEIEAESKEEALEAAKRLAEELGLKIKKVEIYP [F10S] | 3.13 kcal/mol
KPKYVIKVYFEDTGKEVEIEAESKEEALEAAKRLAEELGLKIKKVEIYP [K2P] | 3.73 kcal/mol
KKKYVIKVYFEDTGKEVEIEAESKEEALEAAKRLAEELGLKITKVEIYP [K43T] | 4.32 kcal/mol
KKKYVIKVYFEDTVKEVEIEAESKEEALEAAKRLAEELGLKIKKVEIYP [G14V] | 4.62 kcal/mol
KKKYVIKVYHEDTGKEVEIEAESKEEALEAAKRLAEELGLKIKKVEIYP [F10H] | 2.56 kcal/mol
KKKYVIKVYFEDTGKEVEIEAESKEEALEAQKRLAEELGLKIKKVEIYP [A31Q] | 2.81 kcal/mol
KKKYVIKVYFEDTGKEVEIEAESKEEALEAAKRLAEELGLKEKKVEIYP [I42E] | 2.5 kcal/mol
KKKYVIKVYFEDTGKEVEINAESKEEALEAAKRLAEELGLKIKKVEIYP [E20N] | 4.22 kcal/mol
KKKYVIKVYFEDTGKEVEIEAESKEEALEAVKRLAEELGLKIKKVEIYP [A31V] | 4.45 kcal/mol
KKKYVIKVYFEDTGKEVEIEGESKEEALEAAKRLAEELGLKIKKVEIYP [A21G] | 4.28 kcal/mol
KKKYVIKVYFEDTGKEVEIEAESKEEALEAAKRLAEELGLKIKKVEQYP [I47Q] | 4.25 kcal/mol
KKKYVIKVYFEDTGKEVEIEAESKEEALEAAERLAEELGLKIKKVEIYP [K32E] | 4.28 kcal/mol
KKKYVIKVYFEDTGKEVEIEAESKEEALEAAKRLAEELGLKIKKVEIEP [Y48E] | 4.1 kcal/mol
KKKYVIKTYFEDTGKEVEIEAESKEEALEAAKRLAEELGLKIKKVEIYP [V8T] | 2.91 kcal/mol
KKKYVIYVYFEDTGKEVEIEAESKEEALEAAKRLAEELGLKIKKVEIYP [K7Y] | 4.13 kcal/mol
KKKYVPKVYFEDTGKEVEIEAESKEEALEAAKRLAEELGLKIKKVEIYP [I6P] | -0.197 kcal/mol
KNKYVIKVYFEDTGKEVEIEAESKEEALEAAKRLAEELGLKIKKVEIYP [K2N] | 4.24 kcal/mol
KKKYVIKVYFEDTGKEVEIEAESKEEALEAAKRLAEELGYKIKKVEIYP [L40Y] | 4.88 kcal/mol
KKKYTIKVYFEDTGKEVEIEAESKEEALEAAKRLAEELGLKIKKVEIYP [V5T] | 4.47 kcal/mol
KKKYVIKVYFEDTGKEVEIEAESKEEGLEAAKRLAEELGLKIKKVEIYP [A27G] | 4.68 kcal/mol
KKKYVIKVYFEDTGKEVEIEAESKEEALEAAPRLAEELGLKIKKVEIYP [K32P] | 3.09 kcal/mol
KSKYVIKVYFEDTGKEVEIEAESKEEALEAAKRLAEELGLKIKKVEIYP [K2S] | 4.52 kcal/mol
KKKYVIKVYFEDTGKEVEIEAESKDEALEAAKRLAEELGLKIKKVEIYP [E25D] | 4.58 kcal/mol
KKKYVIKVYFEDTGKEVEIEAESKEEALNAAKRLAEELGLKIKKVEIYP [E29N] | 4.53 kcal/mol
KKKYLIKVYFEDTGKEVEIEAESKEEALEAAKRLAEELGLKIKKVEIYP [V5L] | 4.13 kcal/mol
KIKYVIKVYFEDTGKEVEIEAESKEEALEAAKRLAEELGLKIKKVEIYP [K2I] | 4.36 kcal/mol
KKKYVIKVLFEDTGKEVEIEAESKEEALEAAKRLAEELGLKIKKVEIYP [Y9L] | 4.26 kcal/mol
KKKYVIKVYFEDTGKEVEIEAESKEEALEAARRLAEELGLKIKKVEIYP [K32R] | 4.26 kcal/mol
KKKYVIKVYFEDTGKEVEIEAESKEEALEAAKRLAEELGLKLKKVEIYP [I42L] | 4.32 kcal/mol
KKKYVIKVYFEDTGKEVEIEADSKEEALEAAKRLAEELGLKIKKVEIYP [E22D] | 4.26 kcal/mol
KKKYVIKVYFEDTGKEVEIEATSKEEALEAAKRLAEELGLKIKKVEIYP [E22T] | 4.23 kcal/mol
KKKYVIKVYFEVTGKEVEIEAESKEEALEAAKRLAEELGLKIKKVEIYP [D12V] | 4.34 kcal/mol
KKKYVIKVYFEDTGKEVEIEAESKEEALEAAKQLAEELGLKIKKVEIYP [R33Q] | 4.02 kcal/mol
KKKYVIKVYFEDTGKEVEIEAESKEEALEAAKRQAEELGLKIKKVEIYP [L34Q] | 3.99 kcal/mol
KKKYVIKVYFEDTGKEVEIEAESKEEALEAAKRLAEEGGLKIKKVEIYP [L38G] | 3.85 kcal/mol
KKKHVIKVYFEDTGKEVEIEAESKEEALEAAKRLAEELGLKIKKVEIYP [Y4H] | 3.58 kcal/mol
KKKYVIKVYFEDTGKEVEIEAESKEEALEAAKRLAEDLGLKIKKVEIYP [E37D] | 4.29 kcal/mol
KKKYVIKVYFEDTGKEVEIQAESKEEALEAAKRLAEELGLKIKKVEIYP [E20Q] | 4.43 kcal/mol
KKKYVIKVYFEDTGKEVEIEAESKEEALEKAKRLAEELGLKIKKVEIYP [A30K] | 4.33 kcal/mol
KKKYVIKVYLEDTGKEVEIEAESKEEALEAAKRLAEELGLKIKKVEIYP [F10L] | 3.94 kcal/mol
KKKYVIKVYFEDTGKEVEIEAESKEEALEAAKRLDEELGLKIKKVEIYP [A35D] | 2.58 kcal/mol
KKKYVIKVYFEDTGKEEEIEAESKEEALEAAKRLAEELGLKIKKVEIYP [V17E] | 4.29 kcal/mol
KKKYVIKVYFEDSGKEVEIEAESKEEALEAAKRLAEELGLKIKKVEIYP [T13S] | 4.55 kcal/mol
KKKYVIKVYFEDTGKEVEIEAESKEEALEAAKRLAEEAGLKIKKVEIYP [L38A] | 4.52 kcal/mol
KKKYVIKVYFEDTGKEVEIEAESKEEALEAKKRLAEELGLKIKKVEIYP [A31K] | 2.42 kcal/mol
KKKYVIKVYFPDTGKEVEIEAESKEEALEAAKRLAEELGLKIKKVEIYP [E11P] | 3.62 kcal/mol
KKKYVIKVYFEDTGKEVEIAAESKEEALEAAKRLAEELGLKIKKVEIYP [E20A] | 4.33 kcal/mol
KKKYVIDVYFEDTGKEVEIEAESKEEALEAAKRLAEELGLKIKKVEIYP [K7D] | 2.75 kcal/mol
KKKYVIKVYFEDTGKQVEIEAESKEEALEAAKRLAEELGLKIKKVEIYP [E16Q] | 4.2 kcal/mol
KKKYVIKVYFEDTGKPVEIEAESKEEALEAAKRLAEELGLKIKKVEIYP [E16P] | 4.21 kcal/mol
KKKYVIKVYFEDTGKEVEIEAESKEEALEAAKRLAEELGLKIKKVTIYP [E46T] | 4.36 kcal/mol
KKKYVIKVYMEDTGKEVEIEAESKEEALEAAKRLAEELGLKIKKVEIYP [F10M] | 3.73 kcal/mol
KKKYVIKVYFEDTGKEVEIWAESKEEALEAAKRLAEELGLKIKKVEIYP [E20W] | 4.49 kcal/mol
AKKYVIKVYFEDTGKEVEIEAESKEEALEAAKRLAEELGLKIKKVEIYP [K1A] | 4.25 kcal/mol
KKKYVIKVYFEDTSKEVEIEAESKEEALEAAKRLAEELGLKIKKVEIYP [G14S] | 4.66 kcal/mol
KKKYVIKVYFEDTGKEVEIEAESKEEALEAAKWLAEELGLKIKKVEIYP [R33W] | 4.65 kcal/mol
KKKYVIKAYFEDTGKEVEIEAESKEEALEAAKRLAEELGLKIKKVEIYP [V8A] | 3.59 kcal/mol
KKKYVIKVYFFDTGKEVEIEAESKEEALEAAKRLAEELGLKIKKVEIYP [E11F] | 4.94 kcal/mol
KKKYVIEVYFEDTGKEVEIEAESKEEALEAAKRLAEELGLKIKKVEIYP [K7E] | 3.12 kcal/mol
KKKYVIKVYFEDTGDEVEIEAESKEEALEAAKRLAEELGLKIKKVEIYP [K15D] | 4.17 kcal/mol
KKKYVIKVYFEDTGKEVEIEAESKEEALEAAKRLAEELGLKIKKVEISP [Y48S] | 4.2 kcal/mol
KKKYVIKVYFEDTGKEVEIEAESKEEAAEAAKRLAEELGLKIKKVEIYP [L28A] | 4.28 kcal/mol
KKKYVIKRYFEDTGKEVEIEAESKEEALEAAKRLAEELGLKIKKVEIYP [V8R] | 0.173 kcal/mol
